target: T1, human IL-17A (human, UniProt Q16552 24-155); assay: SPR (Biacore 3000), antibody captured by anti-Fc, antigen in solution;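 also: purified recombinant IL-17 antigens flowed over captured antibodies in HBS-EP buffer, global Langmuir one-to-one fit of association and dissociation phases, KD derived from koff over kon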
T1 construct: Recombinant; biotinylated in the ELISA; also called hIL-17; hIL17A
T1 sequence (Q16552 24-155): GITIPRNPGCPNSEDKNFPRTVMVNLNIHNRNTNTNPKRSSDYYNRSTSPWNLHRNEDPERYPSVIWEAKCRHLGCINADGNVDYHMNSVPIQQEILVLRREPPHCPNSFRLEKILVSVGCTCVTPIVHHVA
propertyLabel: kon (M⁻¹ s⁻¹)

INSERT INTO measurements (binder, observedmeasurement) VALUES
  ('IL17-h5C5.8 (antibody, V domains shown, IgG; constant regions not specified; also called h5C5.8 (VH.1-Vk.1a)) VH: EVQLVQSGAEVKKPGASVKVSCKASGYTFTDYEFHWVRQAPGQGLEWMGVIHPGNGGTAYNQNFRDRVTITADKSTSTAYMELSSLRSEDTAVYYCARFLTYEGYFDYWGQGTLVTVSS VL: DIQMTQSPSSLSASVGDRVTITCKASQSVSIDVGWFQQKPGKSPKLLIYHASNRYTGVPSRFSGSGSGTDFTFTISSLQPEDFATYFCQQDYSSPYTFGQGTKLEIKR', '1.13e+06'),
  ('IL17-h10F7.11 (antibody, V domains shown, IgG; constant regions not specified; also called h10F7.11 (VH.1a-Vk.2a)) VH: EVQLVQSGAEVKKPGSSVKVSCKASGYTFTDYEIHWVRQAPGQGLEWIGVNDPESGGTFYNQKFDGRATLTADKSTSTAYMELSSLRSEDTAVYYCTRYYRYESFYGMDYWGQGTTVTVSS VL: EIVLTQSPDFQSVTPKEKVTITCSASSSISYIYWFQQKPDQSPKRWIYATFELASGVPSRFSGSGSGTDYTLTINSLEAEDAATYYCHQRSSYPWTFGQGTKLEIKR', 271000),
  ('IL17-h5C5.18 (antibody, V domains shown, IgG; constant regions not specified; also called h5C5.18 (VH.1b-Vk.1c)) VH: EVQLVQSGAEVKKPGASVKVSCKASGYTFTDYEFHWVRQAPGQGLEWIGVIHPGNGGTAYNQNFRDRATLTADKSTSTAYMELSSLRSEDTAVYYCTRFLTYEGYFDYWGQGTLVTVSS VL: NIVMTQSPSSLSASVGDRVTITCKASQSVSIDVGWFQQKPGKSPKLLIYHASNRYTGVPSRFSGSGSGTDFTFTISSLQPEDFATYFCQQDYSSPYTFGQGTKLEIKR', 947000),
  ('IL17-h5C5.9 (antibody, V domains shown, IgG; constant regions not specified; also called h5C5.9 (VH.1b-Vk.1a)) VH: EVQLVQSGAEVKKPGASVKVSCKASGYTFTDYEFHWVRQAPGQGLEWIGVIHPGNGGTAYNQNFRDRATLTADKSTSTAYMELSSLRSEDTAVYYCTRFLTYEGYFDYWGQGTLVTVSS VL: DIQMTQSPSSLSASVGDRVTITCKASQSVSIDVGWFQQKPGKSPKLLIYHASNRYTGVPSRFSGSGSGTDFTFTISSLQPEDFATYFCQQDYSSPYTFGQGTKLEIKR', '1.02e+06'),
  ('IL17-h5C5.14 (antibody, V domains shown, IgG; constant regions not specified; also called h5C5.14 (VH.1-Vk.3a)) VH: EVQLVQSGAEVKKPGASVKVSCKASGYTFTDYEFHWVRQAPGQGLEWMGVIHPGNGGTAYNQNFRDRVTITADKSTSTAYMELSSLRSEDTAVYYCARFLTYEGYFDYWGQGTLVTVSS VL: EIVMTQSPATLSVSPGERATLSCKASQSVSIDVGWFQQKPGQSPRLLIYHASNRYTGVPARFSGSGSGTDFTLTISSLQPEDFAVYFCQQDYSSPYTFGQGTKLEIKR', '1.3e+06');
